Ref: paper PMC6403188

System: primary human PBMCs
assay.protocol: Cytokine production from primary human PBMCs (multiplex)
Type: cell-based
reported.conditions: plate-coated compound, 24 h, 5 individual donors
property.name: Th17-associated cytokine production (TNFα, IL-1β, IL-6, IL-23) from human PBMCs

| given.smiles | subject.of.test | experimental.value |
| --- | --- | --- |
| CCCCC(CCCC)C(=O)OC[C@H]1O[C@H](O[C@H]2O[C@H](COC(=O)C(CCCC)CCCC)[C@@H](O)[C@H](O)[C@H]2O)[C@H](O)[C@@H](O)[C@@H]1O | primary human PBMCs | readily detected |
| CCCC(CCC)C(=O)OC[C@H]1O[C@H](O[C@H]2O[C@H](COC(=O)C(CCC)CCC)[C@@H](O)[C@H](O)[C@H]2O)[C@H](O)[C@@H](O)[C@@H]1O | primary human PBMCs | readily detected |
| CC(C)C(=O)OC[C@H]1O[C@H](O[C@H]2O[C@H](COC(=O)C(C)C)[C@@H](O)[C@H](O)[C@H]2O)[C@H](O)[C@@H](O)[C@@H]1O | primary human PBMCs | mixed responses |
| CCC(CC)C(=O)OC[C@H]1O[C@H](O[C@H]2O[C@H](COC(=O)C(CC)CC)[C@@H](O)[C@H](O)[C@H]2O)[C@H](O)[C@@H](O)[C@@H]1O | primary human PBMCs | mixed responses |
